Attribution: patent US20210388087A1

The entries below come with measured fold change of affinity values attached.
Molecular target: T1, Human CD3eg linker (human)
T1 construct: Single-chain construct; also called recombinant human CD3
T1 chain: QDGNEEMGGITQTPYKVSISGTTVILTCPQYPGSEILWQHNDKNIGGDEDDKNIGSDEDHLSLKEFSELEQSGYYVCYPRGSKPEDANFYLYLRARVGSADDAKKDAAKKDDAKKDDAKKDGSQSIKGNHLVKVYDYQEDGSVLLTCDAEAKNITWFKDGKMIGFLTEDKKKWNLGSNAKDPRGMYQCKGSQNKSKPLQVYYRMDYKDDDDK
Assay: SPR; fold vs parent H183/L072
Write the value in fold as a bare number.

Below are worked cases with known answers.
>  <binder>
H183/L072 VL M27eK (antibody, name in Kabat numbering, V domains shown) VH: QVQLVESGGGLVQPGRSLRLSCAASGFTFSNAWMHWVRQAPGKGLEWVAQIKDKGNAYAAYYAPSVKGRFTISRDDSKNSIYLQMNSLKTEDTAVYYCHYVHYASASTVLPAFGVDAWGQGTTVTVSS VL: DIVMTQSPLSLPVTPGEPASISCQASQELVHKNRNTYLHWYQQKPGQAPRLLIYKVSNRFPGVPDRFSGSGSGTDFTLKISRVEAEDVGVYYCAQGTSVPFTFGQGTKLEIK

>  <reading-unit>
fold

>  <fold change of affinity>
1.4

$$$$
>  <binder>
H183/L072 VL L27bM (antibody, name in Kabat numbering, V domains shown) VH: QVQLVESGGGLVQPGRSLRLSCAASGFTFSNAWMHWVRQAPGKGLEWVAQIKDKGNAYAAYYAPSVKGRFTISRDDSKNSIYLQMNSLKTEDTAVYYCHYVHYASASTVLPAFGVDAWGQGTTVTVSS VL: DIVMTQSPLSLPVTPGEPASISCQASQEMVHMNRNTYLHWYQQKPGQAPRLLIYKVSNRFPGVPDRFSGSGSGTDFTLKISRVEAEDVGVYYCAQGTSVPFTFGQGTKLEIK

>  <reading-unit>
fold

>  <fold change of affinity>
0.7

$$$$

From here, focus on the item given below.
## Task If you can, please state the reported fold change of affinity value of H183/L072 VL R54V (antibody, name in Kabat numbering, V domains shown) VH: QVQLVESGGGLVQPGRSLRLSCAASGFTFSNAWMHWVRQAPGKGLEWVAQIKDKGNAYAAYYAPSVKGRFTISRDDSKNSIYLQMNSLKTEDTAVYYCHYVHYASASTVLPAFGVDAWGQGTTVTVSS VL: DIVMTQSPLSLPVTPGEPASISCQASQELVHMNRNTYLHWYQQKPGQAPRLLIYKVSNVFPGVPDRFSGSGSGTDFTLKISRVEAEDVGVYYCAQGTSVPFTFGQGTKLEIK .
## Result 1.1
